conditions: in 1,2-dichloroethane, 318.15 K
Experimental endpoint: solubility (mole fraction)

Exercise: Suppose we examine the compound O=[N+]([O-])c1c(Cl)cc(Cl)c([N+](=O)[O-])c1Cl ; what solubility (mole fraction) value has been reported?
Key: 0.168

---

settings: in ethyl acetate, 313.15 K
Experimental endpoint: solubility (mole fraction)
Answers are plain numbers.

Exercise: Suppose we examine the molecule O=[N+]([O-])c1c(Cl)cc(Cl)c([N+](=O)[O-])c1Cl ; what solubility (mole fraction) value has been reported?
Key: 0.16

---

settings: in ethyl acetate, 283.15 K
Experimental endpoint: solubility (mole fraction)
Answers are plain numbers.

Exercise: Suppose we examine the compound O=[N+]([O-])c1c(Cl)cc(Cl)c([N+](=O)[O-])c1Cl ; what solubility (mole fraction) value has been reported?
Key: 0.0849

---

details: in ethanol, 313.15 K
Experimental endpoint: solubility (mole fraction)
One number for each entry.

Exercise: Suppose we examine the compound O=[N+]([O-])c1c(Cl)cc(Cl)c([N+](=O)[O-])c1Cl ; what solubility (mole fraction) value has been reported?
Key: 0.0113

---

conditions: in chloroform, 308.15 K
Experimental endpoint: solubility (mole fraction)
Numbers only.

Exercise: Suppose we examine the compound O=[N+]([O-])c1c(Cl)cc(Cl)c([N+](=O)[O-])c1Cl ; what solubility (mole fraction) value has been reported?
Key: 0.141

---

settings: in acetone, 293.15 K
Experimental endpoint: solubility (mole fraction)
Answers are plain numbers.

Exercise: Suppose we examine the molecule O=[N+]([O-])c1c(Cl)cc(Cl)c([N+](=O)[O-])c1Cl ; what solubility (mole fraction) value has been reported?
Key: 0.117

---

conditions: in n-butanol, 313.15 K
Experimental endpoint: solubility (mole fraction)
One number for each entry.

Exercise: Suppose we examine the compound O=[N+]([O-])c1c(Cl)cc(Cl)c([N+](=O)[O-])c1Cl ; what solubility (mole fraction) value has been reported?
Key: 0.0157

---

conditions: in acetone, 288.15 K
Experimental endpoint: solubility (mole fraction)
Numbers only.

Exercise: Suppose we examine the molecule O=[N+]([O-])c1c(Cl)cc(Cl)c([N+](=O)[O-])c1Cl ; what solubility (mole fraction) value has been reported?
Key: 0.106

---

conditions: in n-butanol, 318.15 K
Experimental endpoint: solubility (mole fraction)
Numbers only.

Exercise: Suppose we examine the compound O=[N+]([O-])c1c(Cl)cc(Cl)c([N+](=O)[O-])c1Cl ; what solubility (mole fraction) value has been reported?
Key: 0.0189

---

settings: in acetone, 278.15 K
Experimental endpoint: solubility (mole fraction)

Exercise: Suppose we examine the compound O=[N+]([O-])c1c(Cl)cc(Cl)c([N+](=O)[O-])c1Cl ; what solubility (mole fraction) value has been reported?
Key: 0.0844

---

conditions: in n-butanol, 283.15 K
Experimental endpoint: solubility (mole fraction)
One number for each entry.

Exercise: Suppose we examine the compound O=[N+]([O-])c1c(Cl)cc(Cl)c([N+](=O)[O-])c1Cl ; what solubility (mole fraction) value has been reported?
Key: 0.00566

---

conditions: in tetrachloromethane, 313.15 K
Experimental endpoint: solubility (mole fraction)
Answers are plain numbers.

Exercise: Suppose we examine the molecule O=[N+]([O-])c1c(Cl)cc(Cl)c([N+](=O)[O-])c1Cl ; what solubility (mole fraction) value has been reported?
Key: 0.0589
